- Tested on: SK-BR-3
- assay.protocol: Cytotoxicity against human SKBR3 cells after 48 hrs by MTT assay
- Assay type: functional, cell-based
- cond: SK-BR-3, 48 h
pIC50: −log10 of the molar value.
Kindly supply the reported pIC50 values for the records listed here.

The molecule listed as "CC(=O)O[C@H]1C=CC(=O)O[C@@H]1/C=C/c1ccccc1" has a reported pIC50 of 5.33

The molecule listed as "C/C=C\C1=N[C@H]([C@H]2OC(=O)C=C[C@@H]2OC(C)=O)[C@@H](c2ccccc2)O1" has a reported pIC50 of < 4.40

The molecule listed as "CC(=O)O[C@H]1C=CC(=O)O[C@@H]1[C@@H](O)[C@@H](Nc1ccccc1)c1ccccc1" has a reported pIC50 of < 4.40

The molecule listed as "C/C=C\c1nc([C@H]2OC(=O)C=C[C@@H]2OC(C)=O)c(-c2ccccc2)o1" has a reported pIC50 of < 4.40

The molecule listed as "CC(=O)O[C@H]1C=CC(=O)O[C@@H]1[C@H]1N=C(/C=C/c2ccccc2)O[C@@H]1c1ccccc1" has a reported pIC50 of 4.64

The molecule listed as "CC(=O)O[C@H]1C=CC(=O)O[C@@H]1[C@H]1N=C(C(=O)c2ccccc2)O[C@@H]1c1ccccc1" has a reported pIC50 of < 4.40
